- system-name: human Cav2.2 (Homo sapiens)
- Sequence (Q00975 whole entry): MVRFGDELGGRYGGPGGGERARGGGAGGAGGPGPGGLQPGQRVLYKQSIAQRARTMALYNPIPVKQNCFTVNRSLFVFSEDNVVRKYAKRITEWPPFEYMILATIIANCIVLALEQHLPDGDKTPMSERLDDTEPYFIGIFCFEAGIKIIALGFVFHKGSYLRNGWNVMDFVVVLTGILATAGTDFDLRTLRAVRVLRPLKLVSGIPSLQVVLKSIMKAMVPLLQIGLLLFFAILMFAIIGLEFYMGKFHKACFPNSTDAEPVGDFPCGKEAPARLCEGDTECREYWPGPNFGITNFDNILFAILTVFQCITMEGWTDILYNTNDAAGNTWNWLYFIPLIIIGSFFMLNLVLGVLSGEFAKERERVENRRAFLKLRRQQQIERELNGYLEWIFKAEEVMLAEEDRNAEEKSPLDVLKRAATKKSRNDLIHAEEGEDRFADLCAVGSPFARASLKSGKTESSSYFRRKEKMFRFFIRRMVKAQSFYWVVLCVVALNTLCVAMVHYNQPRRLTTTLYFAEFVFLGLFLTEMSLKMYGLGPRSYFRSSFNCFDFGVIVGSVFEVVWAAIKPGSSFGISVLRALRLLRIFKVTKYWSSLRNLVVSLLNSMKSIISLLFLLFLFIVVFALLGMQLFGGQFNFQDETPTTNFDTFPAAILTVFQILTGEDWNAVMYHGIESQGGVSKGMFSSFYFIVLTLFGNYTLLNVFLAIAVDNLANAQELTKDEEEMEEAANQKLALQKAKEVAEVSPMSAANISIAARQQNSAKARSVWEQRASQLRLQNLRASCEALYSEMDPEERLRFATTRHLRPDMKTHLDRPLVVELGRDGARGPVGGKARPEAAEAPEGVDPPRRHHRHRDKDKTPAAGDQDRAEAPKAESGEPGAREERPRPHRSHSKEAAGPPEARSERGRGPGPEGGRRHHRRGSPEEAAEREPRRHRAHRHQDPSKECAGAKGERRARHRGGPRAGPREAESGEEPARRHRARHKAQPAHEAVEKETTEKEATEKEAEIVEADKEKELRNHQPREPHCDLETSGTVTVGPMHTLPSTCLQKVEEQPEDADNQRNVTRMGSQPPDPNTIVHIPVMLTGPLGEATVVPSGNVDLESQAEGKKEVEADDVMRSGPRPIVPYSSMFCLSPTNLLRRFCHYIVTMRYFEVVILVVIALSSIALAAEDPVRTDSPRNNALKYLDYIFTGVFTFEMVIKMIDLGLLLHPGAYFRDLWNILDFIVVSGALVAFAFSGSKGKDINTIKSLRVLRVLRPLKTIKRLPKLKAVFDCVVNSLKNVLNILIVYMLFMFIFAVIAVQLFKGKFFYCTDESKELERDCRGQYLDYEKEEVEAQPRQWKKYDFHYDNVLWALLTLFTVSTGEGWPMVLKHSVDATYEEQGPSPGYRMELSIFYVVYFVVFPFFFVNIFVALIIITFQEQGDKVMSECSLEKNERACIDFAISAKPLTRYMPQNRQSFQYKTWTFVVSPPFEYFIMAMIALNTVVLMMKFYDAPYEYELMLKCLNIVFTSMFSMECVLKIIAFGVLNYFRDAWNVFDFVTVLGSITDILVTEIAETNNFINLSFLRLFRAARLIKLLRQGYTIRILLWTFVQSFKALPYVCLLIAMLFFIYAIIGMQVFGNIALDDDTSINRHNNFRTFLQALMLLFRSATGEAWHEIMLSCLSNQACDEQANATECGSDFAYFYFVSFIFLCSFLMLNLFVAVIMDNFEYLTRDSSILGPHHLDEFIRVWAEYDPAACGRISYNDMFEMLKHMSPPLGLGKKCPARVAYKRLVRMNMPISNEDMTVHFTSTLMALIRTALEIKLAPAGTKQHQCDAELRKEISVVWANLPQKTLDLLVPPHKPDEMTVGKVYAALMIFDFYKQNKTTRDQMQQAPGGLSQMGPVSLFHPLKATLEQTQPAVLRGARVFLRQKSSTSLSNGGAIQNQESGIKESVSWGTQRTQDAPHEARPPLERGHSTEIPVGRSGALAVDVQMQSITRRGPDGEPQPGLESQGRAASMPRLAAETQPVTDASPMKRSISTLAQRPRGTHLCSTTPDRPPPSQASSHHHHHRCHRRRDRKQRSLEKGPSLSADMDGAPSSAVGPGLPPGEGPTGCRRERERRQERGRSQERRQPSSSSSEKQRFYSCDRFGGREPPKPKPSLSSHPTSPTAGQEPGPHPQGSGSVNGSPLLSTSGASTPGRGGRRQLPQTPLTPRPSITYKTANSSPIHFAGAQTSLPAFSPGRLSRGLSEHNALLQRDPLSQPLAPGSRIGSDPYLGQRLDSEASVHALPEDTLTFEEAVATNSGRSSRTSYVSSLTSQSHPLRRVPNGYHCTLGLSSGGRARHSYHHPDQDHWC
- Sequence (P54289 25-956 partner limits assumed): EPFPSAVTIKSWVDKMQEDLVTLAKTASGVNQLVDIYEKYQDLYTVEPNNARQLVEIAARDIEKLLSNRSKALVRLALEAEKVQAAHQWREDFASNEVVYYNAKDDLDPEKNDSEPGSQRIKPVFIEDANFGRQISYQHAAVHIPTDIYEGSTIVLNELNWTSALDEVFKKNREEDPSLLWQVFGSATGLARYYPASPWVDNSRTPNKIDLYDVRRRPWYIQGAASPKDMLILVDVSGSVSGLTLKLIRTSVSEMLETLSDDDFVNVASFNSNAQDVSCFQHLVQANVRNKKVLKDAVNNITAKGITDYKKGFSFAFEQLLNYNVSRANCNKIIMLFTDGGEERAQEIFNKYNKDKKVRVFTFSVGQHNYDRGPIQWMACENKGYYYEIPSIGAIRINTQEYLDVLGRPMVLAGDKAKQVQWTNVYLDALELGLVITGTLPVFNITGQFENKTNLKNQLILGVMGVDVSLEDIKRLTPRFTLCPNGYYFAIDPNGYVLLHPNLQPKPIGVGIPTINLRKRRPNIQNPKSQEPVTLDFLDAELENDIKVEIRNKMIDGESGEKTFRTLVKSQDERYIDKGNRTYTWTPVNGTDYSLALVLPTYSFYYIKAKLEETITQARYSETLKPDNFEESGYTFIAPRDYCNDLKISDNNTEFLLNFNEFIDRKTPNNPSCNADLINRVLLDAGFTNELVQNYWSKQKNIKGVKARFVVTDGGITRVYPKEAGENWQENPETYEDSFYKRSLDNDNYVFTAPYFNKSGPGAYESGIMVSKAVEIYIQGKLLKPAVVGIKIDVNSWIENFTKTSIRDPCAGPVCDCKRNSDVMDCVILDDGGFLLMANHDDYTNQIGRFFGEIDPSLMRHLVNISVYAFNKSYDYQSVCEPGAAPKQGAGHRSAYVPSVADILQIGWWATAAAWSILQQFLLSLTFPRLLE
- Sequence (P54289 957-1103 partner limits assumed): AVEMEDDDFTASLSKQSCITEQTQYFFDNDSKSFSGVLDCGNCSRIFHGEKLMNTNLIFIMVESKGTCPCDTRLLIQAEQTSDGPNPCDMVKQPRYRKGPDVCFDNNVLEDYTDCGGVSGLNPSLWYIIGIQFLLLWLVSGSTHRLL
- Sequence (P54284 whole entry partner): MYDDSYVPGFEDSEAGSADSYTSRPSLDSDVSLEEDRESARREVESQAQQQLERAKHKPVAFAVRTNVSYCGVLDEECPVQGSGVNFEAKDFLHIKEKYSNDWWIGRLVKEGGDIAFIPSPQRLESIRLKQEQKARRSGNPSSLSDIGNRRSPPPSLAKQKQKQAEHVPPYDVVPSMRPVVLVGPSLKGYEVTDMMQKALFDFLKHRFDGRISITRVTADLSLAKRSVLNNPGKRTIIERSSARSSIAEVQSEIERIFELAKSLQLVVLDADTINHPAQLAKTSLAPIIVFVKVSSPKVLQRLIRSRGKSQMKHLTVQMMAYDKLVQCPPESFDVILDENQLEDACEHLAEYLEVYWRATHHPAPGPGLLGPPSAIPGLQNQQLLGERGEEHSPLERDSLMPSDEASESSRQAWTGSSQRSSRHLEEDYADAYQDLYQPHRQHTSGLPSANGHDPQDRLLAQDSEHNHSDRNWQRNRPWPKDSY
- measurement-description: Assessment of calcium channel activity using FLIPR (Ca2+ influx in IMR32 cells)
- Assay type: cell-based
Consider the following molecules; for each one, report its IC50.
Numbers only, in µM.

>  <molecule>
CN[C@H](CC(C)C)C(=O)N[C@H]1CC[C@@H]2CN(c3ccc(C(F)(F)F)cc3)C[C@@H]21 [Example 760]

>  <IC50 (µM)>
2.32

$$$$
>  <molecule>
CN[C@@H](CC(C)C)C(=O)N[C@H]1CC[C@@H]2CN(c3ccc(F)c(C(F)(F)F)c3)C[C@@H]21 [Example 621]

>  <IC50 (µM)>
0.99

$$$$
>  <molecule>
CN[C@@H](CC(C)C)C(=O)N[C@H]1CC[C@@H]2CN(c3ncc(C(F)(F)F)cc3Br)C[C@@H]21 [Example 766]

>  <IC50 (µM)>
0.63

$$$$

Give one value of IC50 per listed molecule.
1. O=C(N[C@H]1CC[C@@H]2CN(c3cccc(C(F)(F)F)n3)C[C@@H]21)[C@@H]1CCCN1 [Example 598]
2. CC(C)C(C(=O)N[C@@H]1CC[C@@H]2CN(Cc3ccccc3)C[C@@H]21)c1ccccc1 (relative stereo) [Example 5]
3. O=C(N[C@H]1CC[C@@H]2CN(c3cccc(C(F)(F)F)n3)C[C@@H]21)[C@@H]1C[C@@H]2CCCC[C@@H]2N1 [Example 593]

A)
1. 2.57
2. 1.46
3. 0.52

All values here come from patent US8691865B2.
